Conditions: in isopentanol, 293.15 K

- structure-smiles: "Nc1ncccn1"
  solubility (mole fraction): 0.0264

###

Conditions: in n-butanol, 307.25 K

- structure-smiles: "Nc1ncccn1"
  solubility (mole fraction): 0.0569

###

Conditions: in 2-butanone, 302.65 K
observable: solubility (mole fraction)

- structure-smiles: "Nc1ncccn1"
  recorded-measurement: 0.0621

###

Conditions: in 2-butanone, 283.55 K

- structure-smiles: "Nc1ncccn1"
  solubility (mole fraction): 0.0317

###

Conditions: in ethyl formate, 293.15 K
observable: solubility (mole fraction)

- structure-smiles: "Nc1ncccn1"
  recorded-measurement: 0.0631

###

Conditions: in cyclopentanone, 293.15 K

- structure-smiles: "Nc1ncccn1"
  solubility (mole fraction): 0.103

###

Conditions: in methanol, 272.65 K

- structure-smiles: "Nc1ncccn1"
  solubility (mole fraction): 0.0213

###

Settings: in n-propanol, 272.65 K

- structure-smiles: "Nc1ncccn1"
  solubility (mole fraction): 0.0142

###

Settings: in isopropanol, 297.85 K

- structure-smiles: "Nc1ncccn1"
  solubility (mole fraction): 0.0325

###

Conditions: in ethyl formate, 317.35 K

- structure-smiles: "Nc1ncccn1"
  solubility (mole fraction): 0.14

###

Details: in acetone, 272.65 K

- structure-smiles: "Nc1ncccn1"
  solubility (mole fraction): 0.0222

###

Conditions: in cyclohexanone, 272.65 K
observable: solubility (mole fraction)

- structure-smiles: "Nc1ncccn1"
  observable: "solubility (mole fraction)"
  recorded-measurement: 0.0371

###

Details: in n-butanol, 302.65 K

- structure-smiles: "Nc1ncccn1"
  solubility (mole fraction): 0.0449

###

Conditions: in ethyl formate, 323.35 K
observable: solubility (mole fraction)

- structure-smiles: "Nc1ncccn1"
  observable: "solubility (mole fraction)"
  recorded-measurement: 0.163

###

Settings: in n-propanol, 278.25 K
observable: solubility (mole fraction)

- structure-smiles: "Nc1ncccn1"
  observable: "solubility (mole fraction)"
  recorded-measurement: 0.0187

###

Conditions: in 2-butanone, 278.25 K
observable: solubility (mole fraction)

- structure-smiles: "Nc1ncccn1"
  recorded-measurement: 0.0249

###

Conditions: in isopentanol, 312.55 K

- structure-smiles: "Nc1ncccn1"
  solubility (mole fraction): 0.0546

###

Conditions: in cyclohexanone, 317.35 K

- structure-smiles: "Nc1ncccn1"
  solubility (mole fraction): 0.143

###

Conditions: in cyclopentanone, 278.25 K
observable: solubility (mole fraction)

- structure-smiles: "Nc1ncccn1"
  recorded-measurement: 0.0721

###

Settings: in acetonitrile, 302.65 K
observable: solubility (mole fraction)

- structure-smiles: "Nc1ncccn1"
  recorded-measurement: 0.0308

###

Conditions: in n-pentanol, 323.35 K

- structure-smiles: "Nc1ncccn1"
  solubility (mole fraction): 0.0733

###

Details: in isobutanol, 297.85 K
observable: solubility (mole fraction)

- structure-smiles: "Nc1ncccn1"
  recorded-measurement: 0.0331

###

Conditions: in n-butanol, 317.35 K

- structure-smiles: "Nc1ncccn1"
  solubility (mole fraction): 0.0934

###

Conditions: in n-pentanol, 293.15 K

- structure-smiles: "Nc1ncccn1"
  solubility (mole fraction): 0.0264

###

Conditions: in methanol, 323.35 K
observable: solubility (mole fraction)

- structure-smiles: "Nc1ncccn1"
  observable: "solubility (mole fraction)"
  recorded-measurement: 0.18

###

Conditions: in methyl acetate, 317.35 K

- structure-smiles: "Nc1ncccn1"
  solubility (mole fraction): 0.0956

###

Settings: in methyl acetate, 272.65 K
observable: solubility (mole fraction)

- structure-smiles: "Nc1ncccn1"
  observable: "solubility (mole fraction)"
  recorded-measurement: 0.0189

###

Settings: in isopentanol, 323.35 K

- structure-smiles: "Nc1ncccn1"
  solubility (mole fraction): 0.0769

###

Settings: in ethyl acetate, 323.35 K
observable: solubility (mole fraction)

- structure-smiles: "Nc1ncccn1"
  recorded-measurement: 0.101

###

Conditions: in n-propanol, 302.65 K
observable: solubility (mole fraction)

- structure-smiles: "Nc1ncccn1"
  observable: "solubility (mole fraction)"
  recorded-measurement: 0.0567

###

Settings: in methyl acetate, 293.15 K
observable: solubility (mole fraction)

- structure-smiles: "Nc1ncccn1"
  recorded-measurement: 0.0397

###

Details: in methyl acetate, 302.65 K

- structure-smiles: "Nc1ncccn1"
  solubility (mole fraction): 0.0596

###

Conditions: in n-pentanol, 302.65 K

- structure-smiles: "Nc1ncccn1"
  solubility (mole fraction): 0.0373

###

Conditions: in n-butanol, 288.15 K
observable: solubility (mole fraction)

- structure-smiles: "Nc1ncccn1"
  observable: "solubility (mole fraction)"
  recorded-measurement: 0.0205

###

Conditions: in cyclopentanone, 312.55 K

- structure-smiles: "Nc1ncccn1"
  solubility (mole fraction): 0.154

###

Conditions: in n-propanol, 307.25 K

- structure-smiles: "Nc1ncccn1"
  solubility (mole fraction): 0.0687

###

Details: in 2-butanone, 307.25 K

- structure-smiles: "Nc1ncccn1"
  solubility (mole fraction): 0.0721

###

Details: in acetone, 278.25 K

- structure-smiles: "Nc1ncccn1"
  solubility (mole fraction): 0.027

###

Conditions: in cyclohexanone, 307.25 K

- structure-smiles: "Nc1ncccn1"
  solubility (mole fraction): 0.109

###

Details: in isobutanol, 272.65 K

- structure-smiles: "Nc1ncccn1"
  solubility (mole fraction): 0.00833

###

Details: in ethanol, 323.35 K
observable: solubility (mole fraction)

- structure-smiles: "Nc1ncccn1"
  observable: "solubility (mole fraction)"
  recorded-measurement: 0.123

###

Details: in isopentanol, 302.65 K

- structure-smiles: "Nc1ncccn1"
  solubility (mole fraction): 0.0385

###

Settings: in methanol, 283.55 K
observable: solubility (mole fraction)

- structure-smiles: "Nc1ncccn1"
  observable: "solubility (mole fraction)"
  recorded-measurement: 0.0359

###

Conditions: in cyclohexanone, 312.55 K

- structure-smiles: "Nc1ncccn1"
  solubility (mole fraction): 0.124

###

Settings: in isopentanol, 317.35 K

- structure-smiles: "Nc1ncccn1"
  solubility (mole fraction): 0.0638

###

Conditions: in methanol, 317.35 K

- structure-smiles: "Nc1ncccn1"
  solubility (mole fraction): 0.145

###

Conditions: in 2-butanone, 323.35 K

- structure-smiles: "Nc1ncccn1"
  solubility (mole fraction): 0.118

###

Details: in acetonitrile, 317.35 K
observable: solubility (mole fraction)

- structure-smiles: "Nc1ncccn1"
  recorded-measurement: 0.0531

###

Conditions: in ethanol, 272.65 K

- structure-smiles: "Nc1ncccn1"
  solubility (mole fraction): 0.00996

###

Details: in ethanol, 283.55 K

- structure-smiles: "Nc1ncccn1"
  solubility (mole fraction): 0.0184

###

Conditions: in isopropanol, 312.55 K
observable: solubility (mole fraction)

- structure-smiles: "Nc1ncccn1"
  observable: "solubility (mole fraction)"
  recorded-measurement: 0.0718

###

Details: in acetone, 293.15 K

- structure-smiles: "Nc1ncccn1"
  solubility (mole fraction): 0.0415

###

Details: in cyclohexanone, 283.55 K

- structure-smiles: "Nc1ncccn1"
  solubility (mole fraction): 0.0529

###

Settings: in n-butanol, 293.15 K

- structure-smiles: "Nc1ncccn1"
  solubility (mole fraction): 0.027

###

Conditions: in 2-butanone, 312.55 K
observable: solubility (mole fraction)

- structure-smiles: "Nc1ncccn1"
  observable: "solubility (mole fraction)"
  recorded-measurement: 0.0865

###

Conditions: in acetonitrile, 323.35 K
observable: solubility (mole fraction)

- structure-smiles: "Nc1ncccn1"
  recorded-measurement: 0.0661

###

Settings: in isopropanol, 323.35 K

- structure-smiles: "Nc1ncccn1"
  solubility (mole fraction): 0.122

###

Details: in 2-pentanone, 323.35 K
observable: solubility (mole fraction)

- structure-smiles: "Nc1ncccn1"
  recorded-measurement: 0.0808

###

Settings: in methanol, 307.25 K
observable: solubility (mole fraction)

- structure-smiles: "Nc1ncccn1"
  observable: "solubility (mole fraction)"
  recorded-measurement: 0.0984

###

Settings: in methyl acetate, 278.25 K
observable: solubility (mole fraction)

- structure-smiles: "Nc1ncccn1"
  observable: "solubility (mole fraction)"
  recorded-measurement: 0.0234

###

Details: in cyclopentanone, 307.25 K

- structure-smiles: "Nc1ncccn1"
  solubility (mole fraction): 0.14

###

Conditions: in acetonitrile, 278.25 K

- structure-smiles: "Nc1ncccn1"
  solubility (mole fraction): 0.0128

###

Details: in ethanol, 293.15 K

- structure-smiles: "Nc1ncccn1"
  solubility (mole fraction): 0.0302

###

Conditions: in isobutanol, 307.25 K
observable: solubility (mole fraction)

- structure-smiles: "Nc1ncccn1"
  observable: "solubility (mole fraction)"
  recorded-measurement: 0.0528

###

Details: in isobutanol, 293.15 K

- structure-smiles: "Nc1ncccn1"
  solubility (mole fraction): 0.0259
